tested on: MOLT-4; test: NCI tumour cell line growth inhibition, 48 h
The source made the active and inactive calls. Rule as the data show it: active = GI50 up to about 1.1 µM and inactive = higher.
Would you mind answering with one of these outcomes? active, inactive

Previously resolved entries follow.
INSERT INTO assay_data (molecule, classification) VALUES
  ('N=c1sc(N2CCOCC2)nn1CC(=O)c1ccccc1', 'inactive'),
  ('CNC(=O)C1CCC(=O)N1CN(C(C)=O)c1ccccc1 (stereo unspecified)', 'inactive'),
  ('O=C1CC(c2ccccc2Cl)C2(C(=O)NC(=O)NC2=O)C(c2ccccc2Cl)C1 (stereo unspecified)', 'inactive'),
  ('CCCCCCCCC/C=C/C=C/C(=O)NCC(=O)NC1C(O)C(O)C(Nc2ncnc3[nH]cnc23)OC1C(O)CO (stereo unspecified)', 'active'),
  ('O=C1C=CC(=O)N1n1c(-c2ccccc2)n[nH]c1=O', 'inactive');

Assay result, entry Cc1ccccc1NC(=O)C1C(=O)N(c2ccccc2C)C(=O)/C1=N\NC(N)=S (stereo unspecified) — outcome? inactive

Assay result, entry N#CC1=C(c2ccccc2)NNC(c2ccc(Cl)cc2)CC1=O (stereo unspecified) — outcome? inactive

Assay result, entry COc1cc(C2(O)c3ccccc3C3=NCCN32)cc(OC)c1OC (stereo unspecified) — outcome? inactive

Assay result, entry O=[PH](O)c1cccs1 — outcome? inactive

Assay result, entry Cc1cc(C)nc(NS(=O)(=O)c2ccc(NC(=O)COC(=O)c3cccc4c(=O)c5ccccc5[nH]c34)cc2)n1 — outcome? inactive

Assay result, entry NS(=O)(=O)C1CCCCC1C(=O)NNC(=O)C(=O)Nc1nnc(S)[nH]1 (stereo unspecified) — outcome? inactive

----------
test system: HL-60; experiment: NCI tumour cell line growth inhibition, 48 h
Activity calls are given as the source filed them. No stated cut-off is given here; in the data, active = GI50 up to about 1.1 µM and inactive = higher.
Would you mind answering with one of these outcomes? 1.0 (active), 0.0 (inactive)

Assay result, entry Cc1ccc(O)c(C(=O)CCCC(=O)c2cc(C)ccc2O)c1 — outcome? 0.0

Assay result, entry C/C(=N/Nc1ccc([N+](=O)[O-])cc1[N+](=O)[O-])C(CC(C(=O)NCc1ccccc1)/C(C)=N\Nc1ccc([N+](=O)[O-])cc1[N+](=O)[O-])C(=O)NCc1ccccc1 (stereo not given) — outcome? 1.0

Assay result, entry Cn1c2c(c3ccccc31)CCN1OCC=C[C@@H](C(=O)O)[C@@H]21 — outcome? 0.0

Assay result, entry C=CCSc1nc2c(N)ncnc2n1C1OC(CO)C(O)C1O (stereo not given) — outcome? 0.0

Assay result, entry FC(F)(F)c1ccc2c(-c3cc[nH]c3)ccnc2c1 — outcome? 0.0

----------
tested on: SW-620; assay: NCI tumour cell line growth inhibition, 48 h
Activity calls are given as the source filed them. Cut-off read from the data, not from the text of the source: active = GI50 up to about 1.1 µM and inactive = higher.
readout: GI50

For orientation, consider the following solved cases.
INSERT INTO results (compound, observed_result) VALUES
  ('O=C(O)CCCOc1cc(-c2ccccc2F)nc2cc3c(cc12)OCO3', '6.07 µM (inactive)'),
  ('COC(=O)[C@H](Cc1ccccc1)NC(=O)NCCN(CCNC(=O)N[C@@H](Cc1ccccc1)C(=O)OC)C(=O)N[C@@H](Cc1ccccc1)C(=O)OC', '22.8 µM (inactive)'),
  ('CCc1n[nH]c(=O)n1O', '> 100 µM (inactive)'),
  ('C[C@]12CC[C@H](O)C[C@@H]1CC[C@@H]1[C@@H]2CC[C@]2(C)[C@@H](c3cc(C(F)(F)F)[nH]n3)CC[C@@H]12', '12.1 µM (inactive)'),
  ('CCN(CC)CCSc1c(C(C)=O)c(=O)n(-c2ccccc2)c(=S)n1-c1ccccc1', '2.25 µM (inactive)'),
  ('OC(c1cc(-c2ccc(Cl)cc2)nc2ccccc12)C1CCCCN1 (stereo not given)', '1.88 µM (inactive)'),
  ('CC(=O)CC(=O)ON(C)C(=O)Cc1ccccc1', '> 100 µM (inactive)'),
  ('CCc1n[nH]c(=O)n1CCO', '> 100 µM (inactive)'),
  ('CCN(CC(=O)O)CC(=O)O', '> 100 µM (inactive)');

Now turn to the next compound.
// returns reported GI50 for input O=C1NC(=O)c2ccccc2/C1=C/c1ccc2c(c1)OCO2 30.5 µM (inactive)

----------
system: HL-60; assay: NCI tumour cell line growth inhibition, 48 h
Activity calls are given as the source filed them. No stated cut-off is given here; in the data, active = GI50 up to about 1.1 µM and inactive = higher.
Would you mind answering with one of these outcomes? Yes (active), No (inactive)

Previously resolved entries follow.
INSERT INTO assay_data (molecule, classification) VALUES
  ('CNNC1=NS(=O)(=O)c2cc(C(=O)OC)c(Cl)cc2S1', 'No'),
  ('Cc1c2ccccc2c(CSC(=N)N)c2ccccc12', 'Yes'),
  ('Cc1c2cc[n+](C)cc2c(C)c2c1[nH]c1ccccc12', 'No');

Assay result, entry OC(c1cc(-c2ccc(Cl)cc2)nc2ccccc12)C1CCCCN1 (stereo not given) — outcome? No

Assay result, entry Nc1nc(O)c2c(ncn2CCO)n1 — outcome? No

Assay result, entry CC(C)(C)OC(=O)N1C(=O)C2CCCC21 (stereo not given) — outcome? No

Assay result, entry Clc1ccc(C(c2ccc(Cl)cc2)c2cncnc2)cc1 — outcome? No

----------
tested on: HCT-116; experiment: NCI tumour cell line growth inhibition, 48 h
The source made the active and inactive calls. Rule as the data show it: active = GI50 up to about 1.1 µM and inactive = higher.
Would you mind answering with one of these outcomes? active, inactive

Assay result, entry CCCCCCCCC/C=C/C=C/C(=O)NCC(=O)NC1C(O)C(O)C(Nc2ncnc3[nH]cnc23)OC1C(O)CO (stereo not drawn) — outcome? active

Assay result, entry Cc1ccc(-c2c(C#N)c(-c3ccc([N+](=O)[O-])cc3)c(C#N)c(=O)n2NS(=O)(=O)c2ccc(C)cc2)cc1 — outcome? inactive

Assay result, entry ClC1(Cl)C2CCOC21n1cnc2ccccc21 (stereo not drawn) — outcome? inactive

Assay result, entry COc1ccc(Cc2nc3cc([N+](=O)[O-])ccc3n2C[C@@H]2CCCN3CCCCC23)cc1 (stereo partly drawn) — outcome? inactive

Assay result, entry CC(=O)Oc1ccc(-c2nnc(-c3ccc(OC(C)=O)cc3)nn2)cc1 — outcome? inactive

Assay result, entry CC(=O)O[C@@H]1[C@@H](O)C2=C3[C@]4(C)[C@@H]1C(C)(C)C(=O)C[C@@H]4[C@]3(O)[C@H](OC(C)=O)[C@@]1(C[C@@H]1C)C2=O — outcome? inactive

Assay result, entry O=c1[nH]cnc2cccc(Cl)c12 — outcome? inactive

Assay result, entry COc1cc(C2(O)c3ccccc3C3=NCCN32)cc(OC)c1OC (stereo not drawn) — outcome? inactive

----------
tested on: OVCAR-5; assay: NCI tumour cell line growth inhibition, 48 h
The source made the active and inactive calls. No stated cut-off is given here; in the data, active = GI50 up to about 1.1 µM and inactive = higher.
Would you mind answering with one of these outcomes? YES for active, NO for inactive

INSERT INTO assay_data (compound, classification) VALUES
  ('COc1ccc(-c2nc(Sc3c([N+](=O)[O-])ncn3C)n[nH]2)cc1', 'NO'),
  ('O=C1C=CC(S(=O)(=O)C2=C/C(=C/Nc3ccc(Cl)cc3)C(=O)C=C2)=C/C1=C/Nc1ccc(Cl)cc1', 'NO'),
  ('CN(C)[C@@H]1C(O)=C(C(=O)NCN2CCN(C(=N)NC(=N)N)CC2)C(=O)[C@@]2(O)C(O)=C3C(=O)c4c(O)cccc4[C@@](C)(O)[C@H]3C[C@@H]12', 'YES'),
  ('CC(=O)OC1CC[C@@]2(C)C(CC(OC3OC(CO)C(O)C(O)C3O)[C@]3(C)C2CCC24CC23CC[C@H]4C(C)CC(O)[C@@H](O)C(C)(C)O)C1(C)C (some centres undefined)', 'NO'),
  ('CC(=O)Oc1ccc(-c2nnc(-c3ccc(OC(C)=O)cc3)nn2)cc1', 'NO');

Assay result, entry CCCC1C(C#N)(C#N)C(C#N)=C(N)C1(C)C(C)=O (centres undefined) — outcome? NO

Assay result, entry Cc1ccc2nc(CN3CCCCC3)cc(=O)n2c1 — outcome? NO

Assay result, entry c1ccc(Cn2c(-c3ccc(-c4ccccc4)cc3)cc3ccccc32)cc1 — outcome? NO

Assay result, entry O=[N+]([O-])c1cc(F)ccc1Sc1ccccc1 — outcome? NO

Assay result, entry CN(C)CC1CCC/C(=C\c2ccc(OC(=O)/C=C/c3ccc(Cl)cc3)cc2)C1=O (centres undefined) — outcome? NO

----------
test system: SNB-75; assay: NCI tumour cell line growth inhibition, 48 h
Activity calls are given as the source filed them. Rule as the data show it: active = GI50 up to about 1.1 µM and inactive = higher.
Would you mind answering with one of these outcomes? active, inactive

Previously resolved entries follow.
INSERT INTO results (molecule, classification) VALUES
  ('CN(C)c1ccc(/N=C2/C=CC(=C(C#N)C#N)c3ccccc32)cc1', 'active'),
  ('CC(C)Oc1cccc(N2C(NCc3c[nH]c4ccccc34)=Nc3ccncc3S2(=O)=O)c1', 'inactive'),
  ('O=C(N/N=C\c1cccc2ccccc12)Nc1ccccc1', 'inactive'),
  ('CCCCCCCCC/C=C/C=C/C(=O)NCC(=O)NC1C(O)C(O)C(Nc2ncnc3[nH]cnc23)OC1C(O)CO (stereo unspecified)', 'active');

Assay result, entry COCn1cnc2c(=O)n(-c3ccc(OC)cc3)c(=S)n(-c3ccc(OC)cc3)c21 — outcome? inactive

Assay result, entry CN1N=C(c2ccncc2)OC1c1cccc(C(F)(F)F)c1 (stereo unspecified) — outcome? inactive

Assay result, entry O=C1C2=C(CC3=C(C2)CS(=O)(=O)C3)C(=O)C2=C1CC1=C(C2)CS(=O)(=O)C1 — outcome? inactive

All values here come from ChEMBL document CHEMBL1201862.
